Data provenance is paper PMC10253456.

- System: CYP3A
- Run description: CYP3A catalytic activity (erythromycin N-demethylation) in pooled human liver microsomes
- Assay conditions: compound at estimated 2-fold IC50 (5 µM where none reported)
Test readout: Catalytic activity at 2-fold IC50 (nmol/mg/min)
Numbers only, in nmol/mg/min.

Recorded results for 5 molecules are shown here.
INSERT INTO assay_data (molecule, measured_result) VALUES
  ('C=C[C@@H]1C2=CCOC(=O)C2=CO[C@H]1O[C@@H]1O[C@H](CO)[C@@H](O)[C@H](O)[C@H]1O [Gentiopicroside]', 0.54),
  ('CC[C@H]1OC(=O)[C@H](C)[C@@H](O[C@H]2C[C@@](C)(OC)[C@@H](O)[C@H](C)O2)[C@H](C)[C@@H](O[C@@H]2O[C@H](C)C[C@H](N(C)C)[C@H]2O)[C@](C)(OC)C[C@@H](C)C(=O)[C@H](C)[C@@H](O)[C@]1(C)O', 0.59),
  ('O=c1cc(-c2ccccc2)oc2cc(O)ccc12 [7-Hydroxyflavone]', 0.61),
  ('C[C@]12CC[C@H](O)CC1=CC[C@@H]1[C@@H]2CC[C@]2(C)C(n3cnc4ccccc43)=CC[C@@H]12', 0.61),
  ('CCc1oc2ccccc2c1C(=O)c1cc(Br)c(O)c(Br)c1', 0.37);

Go through the list and state Catalytic activity at 2-fold IC50 for each entry.
1. O=C1c2ccccc2C(=O)c2c1ccc(O)c2O
2. COc1ccc(/C=C/c2cc(O)cc(O)c2)cc1O
3. Nc1ccc(S(=O)(=O)Nc2ccnn2-c2ccccc2)cc1

1. 0.57
2. 0.53
3. 0.47
